measurement_context: in n-pentanol, 298.15 K
measure_name: solubility (mole fraction)
I only need the number, thanks.

Record `CS(=O)(=O)c1ccc(C(=O)C2C(=O)CCCC2=O)c([N+](=O)[O-])c1` , field solubility (mole fraction): 0.00168

----------
measurement_context: in n-propanol, 313.15 K
measure_name: solubility (mole fraction)
Keep the answer to the number alone.

What the record says about `CS(=O)(=O)c1ccc(C(=O)C2C(=O)CCCC2=O)c([N+](=O)[O-])c1` : solubility (mole fraction) is 0.0054

----------
measurement_context: in n-propanol, 318.15 K
measure_name: solubility (mole fraction)
// return just the number, without any unit appended

Value of measured solubility (mole fraction) for the entry `CS(=O)(=O)c1ccc(C(=O)C2C(=O)CCCC2=O)c([N+](=O)[O-])c1` : 0.00669
